target: Protein phosphatase methylesterase 1 (Homo sapiens); test: PME-1 inhibitor activity retest, confirmation, biochemical, fluorescence polarization, FP-Rh probe, triplicate (AID 2171); conditions: recombinant PME-1, FP-Rh probe fluorescence polarization; at 5.9 µM; hits give high values;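 note: 0% = enzyme with DMSO and 100% = wells lacking PME-1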
Calls of active or inactive are those of the source.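 Rule for the calls: active = inhibition above the hit cutoff set in the earlier primary screen (cut at about 27% in these data); inactive = the rest.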
quantity.name: inhibition

Use these answered entries as a reference point.
Item under review: CCN(CC)c1nc2c3c(nc4c(c3c1C#N)CC(=O)N4c1ccc(Cl)cc1)NC(C)=N2 . Reported inhibition?
9.8% (inactive)

Item under review: COc1ccc(/C=N\NC(=O)c2cc(O)c(O)c(O)c2)cc1COc1ccc(C(=O)OCC(C)C)cc1 . Reported inhibition?
-24.1% (inactive)

Item under review: C/C(=N\Nc1ccc(C(=O)O)cc1)c1ccc2c(c1)Nc1ccccc1S2 . Reported inhibition?
30.5% (active)

More entries:
Item under review: Cc1ccc(C)c(NC(=O)COC(=O)c2cccc3c2C(=O)c2ccccc2C3=O)c1 . Reported inhibition?
92.7% (active)

Item under review: NNc1nc2cc3c(cc2s1)OCCO3 . Reported inhibition?
8.82% (inactive)

Item under review: Cc1cc2nc3ccc(N(C)C)cc3nc2cc1N . Reported inhibition?
20% (inactive)

Item under review: Cc1ccc2[nH]c3c(N4CCc5ccccc5C4)ncnc3c2c1 . Reported inhibition?
30.5% (active)

Item under review: O=c1nc(/C=C/c2cc([N+](=O)[O-])ccc2Cl)cc(C(F)(F)F)[nH]1 . Reported inhibition?
25.3% (inactive)

Item under review: Cn1c2ccccc2c2cc(/C=N/NC(=O)c3ccc(N)cc3)ccc21 . Reported inhibition?
19.7% (inactive)

Item under review: O=C(Nc1cccc(C(F)(F)F)c1)c1ccc2nc(-c3ccco3)c(-c3ccco3)nc2c1 . Reported inhibition?
-3.36% (inactive)

###

system: transactivating tegument protein VP16 (Human herpesvirus 1), Gal4-VP16 luciferase reporter; experiment: VP16 transactivation inhibitors, counter-screen for SRC3 inhibitor project, cell-based, luminescence, high throughput (AID 588794); details: mammalian cells, VP16-driven luciferase reporter luminescence; at 3.6 µM
Active and inactive are the calls of the source. No stated cut-off is given here; in the data, active means inhibition above about 30%; inactive means the rest.
Answer with one of the outcomes given here: active, inactive

Recorded results for 4 molecules are shown here.
Which outcome did this test record for the molecule Cc1sc(NC(=O)/C=C/c2ccc3c(c2)OCO3)nc1-c1ccccc1 ?
active

Which outcome did this test record for the molecule CCc1ccc(-c2nc(CSCC(=O)NCc3ccco3)c(C)o2)cc1 ?
inactive

Which outcome did this test record for the molecule CCc1ccc(N2CC(C(=O)N/N=C/c3cc([N+](=O)[O-])ccc3O)CC2=O)cc1 (centres undefined) ?
inactive

Which outcome did this test record for the molecule CCc1ccc(NC(=O)c2cnc(N3CCN(c4ccccn4)CC3)c3ccccc23)cc1 ?
active

More entries:
Which outcome did this test record for the molecule CCOc1cccc(/C=N/NC(=S)Nc2ccccc2[N+](=O)[O-])c1O ?
active

Which outcome did this test record for the molecule Cc1nc2c(-c3ccccc3)cnn2c(N)c1-c1ccccc1 ?
active

Which outcome did this test record for the molecule COC(=O)/C(C#N)=C\c1c(OC)[nH]c2ccccc12 ?
inactive

Which outcome did this test record for the molecule COc1ccc(-n2c(-c3ccc(Br)cc3)c[n+]3c2SC(C)C3)cc1 (centres undefined) ?
inactive

Which outcome did this test record for the molecule CCC(=O)Nc1cc2nn(-c3ccc(C)cc3)nc2cc1C ?
inactive

###

tested on: transactivating tegument protein VP16 (Human herpesvirus 1); assay: VP16 transactivation reporter inhibitors, counter-screen for SRC2 inhibitor project, cell-based, luminescence, single concentration (AID 652007); conditions: cell-based VP16 transactivation luciferase reporter, at 8.9 µM, hits give high values
Each entry below carries its recorded inhibition.
Your answer is read as %, so omit the unit and give the number.

Use these answered entries as a reference point.
Recall the recorded inhibition for CCCN(CC)c1ncnc2[nH]ncc12 with transactivating tegument protein VP16 (Human herpesvirus 1) and state it.
-9.97

Recall the recorded inhibition for O=C(O)CCn1c(O)c(C=C2N=c3ccccc3=N2)sc1=S with transactivating tegument protein VP16 (Human herpesvirus 1) and state it.
34.1

Recall the recorded inhibition for C(=N\Nc1ccc2ccccc2n1)/c1ccc2c(c1)OCCO2 with transactivating tegument protein VP16 (Human herpesvirus 1) and state it.
44.3

Recall the recorded inhibition for CC(C)OC(=O)c1ccc(NCc2cc(O)ccc2O)cc1 with transactivating tegument protein VP16 (Human herpesvirus 1) and state it.
51.7

Recall the recorded inhibition for CC(=O)Nc1ccc(NC2=C/C(=N/S(=O)(=O)c3cccs3)c3ccccc3C2=O)cc1 with transactivating tegument protein VP16 (Human herpesvirus 1) and state it.
9.81

Recall the recorded inhibition for Oc1ccc(N=Nc2ccc3c(c2)OCCO3)c2ncccc12 with transactivating tegument protein VP16 (Human herpesvirus 1) and state it.
-13.1

Recall the recorded inhibition for COc1cc(OC)cc(-c2cc3nc(C)c(CCC(=O)NCc4ccccc4)c(C)n3n2)c1 with transactivating tegument protein VP16 (Human herpesvirus 1) and state it.
66.8

Recall the recorded inhibition for CCc1ccc(/C=C/C(=O)c2c(C)cc(C)[nH]c2=O)cc1 with transactivating tegument protein VP16 (Human herpesvirus 1) and state it.
17.5

More entries:
Recall the recorded inhibition for Cc1cccc(N(Cc2cc(=O)[nH]c3ccccc23)C(=O)CCl)c1 with transactivating tegument protein VP16 (Human herpesvirus 1) and state it.
42.4

Recall the recorded inhibition for COc1ccc(/C=C2\SC(=S)N(CCCC(=O)NNC(=O)c3ccccc3O)C2=O)cc1 with transactivating tegument protein VP16 (Human herpesvirus 1) and state it.
89.9

Recall the recorded inhibition for CCOc1ccc(Nc2cc(C)nc(-n3nc(C)cc3C)n2)cc1 with transactivating tegument protein VP16 (Human herpesvirus 1) and state it.
-8.07

###

Each entry below carries its recorded inhibition.
molecular target: Nuclear receptor coactivator 3 (Homo sapiens) (UniProt Q9Y6Q9); test: SRC3 coactivator transcriptional activity inhibitors, confirmation, cell-based, luminescence, quadruplicate (AID 588792); conditions: HEK293 GAL4-SRC3 luciferase reporter, at 3.6 µM, hits give high values;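 note: 0% = DMSO treated cells and 100% = gossypol at 36 µM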
Sequence (Q9Y6Q9 whole entry, looked up, the tested form may be a part): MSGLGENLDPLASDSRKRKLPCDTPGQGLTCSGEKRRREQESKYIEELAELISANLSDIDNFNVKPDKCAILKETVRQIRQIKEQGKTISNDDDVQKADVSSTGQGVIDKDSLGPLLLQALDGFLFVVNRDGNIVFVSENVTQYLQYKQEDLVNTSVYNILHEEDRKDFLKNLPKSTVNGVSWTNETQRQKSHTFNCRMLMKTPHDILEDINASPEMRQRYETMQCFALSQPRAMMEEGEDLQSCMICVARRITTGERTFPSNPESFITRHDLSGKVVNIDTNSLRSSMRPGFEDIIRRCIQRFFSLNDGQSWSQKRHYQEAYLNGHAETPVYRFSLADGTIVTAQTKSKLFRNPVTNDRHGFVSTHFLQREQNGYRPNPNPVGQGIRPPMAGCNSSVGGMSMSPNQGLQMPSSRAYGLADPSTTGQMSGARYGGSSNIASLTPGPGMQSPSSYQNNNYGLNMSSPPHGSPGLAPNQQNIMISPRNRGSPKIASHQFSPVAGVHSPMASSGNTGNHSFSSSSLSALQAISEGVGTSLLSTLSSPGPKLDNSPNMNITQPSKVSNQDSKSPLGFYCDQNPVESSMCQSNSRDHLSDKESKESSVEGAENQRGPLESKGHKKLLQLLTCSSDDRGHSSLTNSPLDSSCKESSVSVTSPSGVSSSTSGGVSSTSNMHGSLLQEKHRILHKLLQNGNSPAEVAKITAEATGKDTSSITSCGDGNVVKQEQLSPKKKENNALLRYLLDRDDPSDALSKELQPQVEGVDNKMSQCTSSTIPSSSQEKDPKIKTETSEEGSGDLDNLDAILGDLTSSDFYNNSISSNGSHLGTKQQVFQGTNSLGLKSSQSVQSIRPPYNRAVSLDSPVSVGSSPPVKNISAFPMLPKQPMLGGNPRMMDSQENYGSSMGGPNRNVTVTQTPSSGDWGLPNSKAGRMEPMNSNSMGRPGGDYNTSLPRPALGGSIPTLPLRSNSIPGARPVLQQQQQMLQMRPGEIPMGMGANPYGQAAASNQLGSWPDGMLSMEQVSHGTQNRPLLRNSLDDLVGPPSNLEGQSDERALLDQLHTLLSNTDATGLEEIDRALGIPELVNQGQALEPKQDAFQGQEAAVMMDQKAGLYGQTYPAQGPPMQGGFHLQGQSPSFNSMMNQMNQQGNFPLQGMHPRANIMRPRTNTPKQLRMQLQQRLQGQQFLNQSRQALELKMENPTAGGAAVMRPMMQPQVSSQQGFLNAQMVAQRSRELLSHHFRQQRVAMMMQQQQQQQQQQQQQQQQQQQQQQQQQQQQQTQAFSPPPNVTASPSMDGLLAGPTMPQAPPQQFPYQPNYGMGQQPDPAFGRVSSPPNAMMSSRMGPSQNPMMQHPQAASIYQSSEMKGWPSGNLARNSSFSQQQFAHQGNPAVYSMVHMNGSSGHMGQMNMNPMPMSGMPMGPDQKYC
Your answer is read as %, so omit the unit and give the number.

Use these answered entries as a reference point.
Recall the recorded inhibition for COc1ccc(/C=C/C(=O)c2ccc3c4c(cccc24)CC3)cc1OC with Nuclear receptor coactivator 3 (Homo sapiens) (UniProt Q9Y6Q9) and state it.
21.5

Recall the recorded inhibition for O=C(Nc1ccc(N2CCN(C(=O)c3ccccc3)CC2)cc1)c1ccc2c(c1)OCO2 with Nuclear receptor coactivator 3 (Homo sapiens) (UniProt Q9Y6Q9) and state it.
36.9

Recall the recorded inhibition for CCc1ccc([C@@H]2CC(=O)[C@@H]3CN(S(=O)(=O)c4ccccc4C)[C@H](c4ccc(Cl)cc4)C[C@@H]3N2S(=O)(=O)c2ccc(C)cc2)cc1 with Nuclear receptor coactivator 3 (Homo sapiens) (UniProt Q9Y6Q9) and state it.
15.5

More entries:
Recall the recorded inhibition for C[C@H](NS(=O)(=O)c1ccc(Cl)cc1)C(=O)OCC(=O)NC(=O)Nc1ccc2c(c1)OCCO2 with Nuclear receptor coactivator 3 (Homo sapiens) (UniProt Q9Y6Q9) and state it.
-39.7

###

biological target: Nuclear receptor coactivator 1 (Homo sapiens) (UniProt Q15788); assay: SRC1 coactivator transcriptional activity inhibitors, confirmation, cell-based, luminescence, quadruplicate (AID 588820); details: HEK293 GAL4-SRC1 luciferase reporter, at 3.6 µM, hits give high values;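 note: 0% = DMSO wells and 100% = gossypol 36 µM treated wells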
Sequence (Q15788 whole entry, looked up, the tested form may be a part): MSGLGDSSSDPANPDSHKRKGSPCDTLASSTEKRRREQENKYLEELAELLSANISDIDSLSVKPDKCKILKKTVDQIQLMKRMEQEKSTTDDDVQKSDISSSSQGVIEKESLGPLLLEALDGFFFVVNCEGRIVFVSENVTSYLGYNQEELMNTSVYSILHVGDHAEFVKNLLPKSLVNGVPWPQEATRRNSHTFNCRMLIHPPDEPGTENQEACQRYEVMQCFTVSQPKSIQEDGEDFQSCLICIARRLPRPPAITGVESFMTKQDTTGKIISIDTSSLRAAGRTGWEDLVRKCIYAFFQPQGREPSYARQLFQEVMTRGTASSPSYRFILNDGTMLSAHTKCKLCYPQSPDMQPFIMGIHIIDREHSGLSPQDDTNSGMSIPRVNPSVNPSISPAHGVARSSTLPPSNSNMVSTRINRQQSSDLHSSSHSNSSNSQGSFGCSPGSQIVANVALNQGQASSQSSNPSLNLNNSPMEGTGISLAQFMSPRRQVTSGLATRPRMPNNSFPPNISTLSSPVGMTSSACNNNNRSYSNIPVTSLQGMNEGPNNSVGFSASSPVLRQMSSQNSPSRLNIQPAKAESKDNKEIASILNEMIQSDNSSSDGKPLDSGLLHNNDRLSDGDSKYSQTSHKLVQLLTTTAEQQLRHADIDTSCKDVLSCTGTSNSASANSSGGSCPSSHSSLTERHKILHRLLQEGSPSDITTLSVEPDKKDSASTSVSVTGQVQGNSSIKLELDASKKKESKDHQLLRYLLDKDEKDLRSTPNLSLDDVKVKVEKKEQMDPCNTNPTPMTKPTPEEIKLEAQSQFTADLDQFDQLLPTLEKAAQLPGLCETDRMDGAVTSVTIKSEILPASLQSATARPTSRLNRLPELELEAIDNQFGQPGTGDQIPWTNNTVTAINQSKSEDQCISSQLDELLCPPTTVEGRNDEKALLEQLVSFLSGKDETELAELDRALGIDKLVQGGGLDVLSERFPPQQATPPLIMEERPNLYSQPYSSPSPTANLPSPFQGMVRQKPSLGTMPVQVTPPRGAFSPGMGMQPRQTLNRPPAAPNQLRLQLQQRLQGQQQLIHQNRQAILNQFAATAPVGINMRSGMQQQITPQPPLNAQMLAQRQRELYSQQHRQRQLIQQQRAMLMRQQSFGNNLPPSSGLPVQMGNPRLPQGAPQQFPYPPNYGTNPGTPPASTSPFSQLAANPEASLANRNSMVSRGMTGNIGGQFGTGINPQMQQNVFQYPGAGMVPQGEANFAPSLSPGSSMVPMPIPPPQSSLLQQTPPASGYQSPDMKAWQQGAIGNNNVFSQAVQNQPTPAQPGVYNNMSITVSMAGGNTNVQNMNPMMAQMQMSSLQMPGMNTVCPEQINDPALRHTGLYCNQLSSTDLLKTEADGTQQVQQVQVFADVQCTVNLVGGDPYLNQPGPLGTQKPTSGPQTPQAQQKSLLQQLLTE
quantity.name: inhibition (%)
Your answer is read as %, so omit the unit and give the number.

Use these answered entries as a reference point.
Item under review: c1ccc(-c2noc(-c3ccc4ccccc4c3)n2)nc1 . Reported inhibition?
-79.6

Item under review: Cn1nnnc1N=N/C(=N/Nc1ccccc1)c1ccccc1 . Reported inhibition?
55.5

Item under review: CC(C)c1ccc(/C=C(\c2nc3ccccc3[nH]2)S(=O)(=O)c2ccccc2)cc1 . Reported inhibition?
-0.35

Item under review: CCCCC(=O)Nc1cccn2ncnc12 . Reported inhibition?
24.7

Item under review: Cc1ccc(-c2n[nH]c(=S)n2/N=C/c2ccncc2)cc1 . Reported inhibition?
37.6

Here's the next entry for you.
Item under review: O=S(=O)(/C(=C\c1ccc(C(F)(F)F)cc1)c1nc2ccccc2[nH]1)c1ccccc1 . Reported inhibition?
-29.1

###

Each entry below carries its recorded inhibition.
assay: NF-kB reporter inhibitors in human cells, confirmation, counter-screen for STAT3 inhibitor project, cell-based, HEK293T, luciferase, TNF-alpha stimulus (AID 1308); conditions: TNF-alpha induced, at 5.7 µM, hits give high values;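 note: 0% = TNF-alpha with DMSO and 100% = TNF-alpha with MG high control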
Some of the results follow.
Your answer is read as %, so omit the unit and give the number.

Item under review: Cc1ccc(NC(=O)CN(C)CC(=O)Nc2cccc(F)c2)cc1[N+](=O)[O-] . Reported inhibition?
13

More entries:
Item under review: CC(C)(CNC(=O)c1ccc(Cl)c(S(=O)(=O)N2CCc3ccccc3C2)c1)N1CCOCC1 . Reported inhibition?
13.4

Item under review: COc1cccc(-c2nc3cc(C)ccc3o2)c1 . Reported inhibition?
-23.8

###

biological target: Steroidogenic factor 1 (Homo sapiens); test: SF1 (NR5A1) inverse agonists, counter-screen for LRH-1 inverse agonist project, cell-based, luminescence, high throughput (AID 651614); settings: cell-based SF1 luciferase reporter, at 3.6 µM, hits give high values;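 note: cells cotransfected with StAR promoter reporter and SF1 expression vector; 0% = vehicle on cells with receptor and 100% = vehicle on cells lacking receptor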
Each entry below carries its recorded inhibition.
Your answer is read as %, so omit the unit and give the number.

Use these answered entries as a reference point.
Item under review: COc1cc2c(cc1OC)-c1c(OC)c(OC)cc3ccnc(c13)C2=O . Reported inhibition?
59

Item under review: c1ccc(Oc2nc(-c3cccnc3)nc3ccccc23)cc1 . Reported inhibition?
53.3

Item under review: CCOc1ccc(NC(=O)COC(=O)C2CCC(=O)N2)c([N+](=O)[O-])c1 (stereo unspecified) . Reported inhibition?
43.6

Item under review: O=C(NN=Cc1ccccc1O)NN=Cc1ccccc1O . Reported inhibition?
86.7

Item under review: NNC(=O)C(Cc1ccc(O)cc1)N1Cc2ccccc2C1=O (stereo unspecified) . Reported inhibition?
29.4

More entries:
Item under review: OCC1OC(n2ccc3c2ncn2ncnc32)C(O)C1O (stereo unspecified) . Reported inhibition?
38.8

Every entry's value here was drawn from PubChem BioAssay.
